assay.summary: Drug level in Escherichia coli UTI89-infected CBA/J mouse urine at 1 mg/kg, po after 2 hrs
Assay type: ADME, organism-based
Parameters: dose 1 mg/kg, route oral
condition.info: in vivo
recorded.endpoint: Drug uptake (µg/mL)
One number for each entry, in µg/mL.

Input line: Would you mind telling me what Drug uptake value was observed for C[C@@H]1O[C@@H]1P(=O)(O)O [FOSFOMYCIN] ?
Output line: 4
